# experiment description: Half life in mouse liver microsomes
# Assay type: ADME, microsome
Would you mind telling me the reported half-life of each entry?

-- ask Indicate the recorded half-life value for this molecule: CC(C)(C)[C@@H](CO)NC(=O)c1nn(-c2c[n+]([O-])ccn2)c2c1C[C@@H]1C[C@H]21
-- reply > 60 min

-- ask Indicate the recorded half-life value for this molecule: CC(C)(C)[C@@H](CO)NC(=O)c1nn(-c2cnccn2)c2c1C[C@H]1C[C@@H]21
-- reply 9 min

-- ask Indicate the recorded half-life value for this molecule: CC(C)(CO)NC(=O)c1nn(-c2cnccn2)c2c1C[C@H]1C[C@@H]21
-- reply > 60 min

-- ask Indicate the recorded half-life value for this molecule: CC(C)(C)[C@@H](CO)NC(=O)c1nn(-c2cnccn2)c2c1C[C@@H]1C[C@H]21
-- reply 24 min
